Entries and their pRA
# system-tested: Melatonin receptor (Gallus gallus) (UniProt P49288+P51050+P49285)
# setup-conditions: Coturnix

Could you share which pRA value was measured for CC(=O)NCCCc1cccc(Cl)c1 ? -3.03

***
Any idea what pRA was measured for CCC(=O)NCC1Cc2cccc(OC)c2C1 (centres undefined) ? -1.22

What value of pRA has been reported for the following compound? CCOc1ccc2ccccc2c1CCNC(=O)CC -0.2

Can you share its pRA? I mean this compound: COc1cccc2[nH]cc(CCNC(C)=O)c12 -2.52

----------
# system-tested: Melatonin receptor (Gallus gallus) (UniProt P49288+P51050+P49285)
# setup-conditions: Coturnix
Reported pRA values are given for each entry in this list.
Lab note: write the figure by itself, no unit.

Please review the entries below; each comes with its answer.
I'd like to know its pRA. The compound in question is CCC(=O)NCCc1cc(C)ccc1OC -1.98

Dear colleague, I am looking for the recorded pRA of the following compound: CCC(=O)NCCc1cccc(OC)c1 -2.02

What measured pRA goes with COc1ccc2c(c1)c(CCNC(C)=O)cn2Cc1ccccc1 ? -2.66

Find the recorded pRA belonging to COc1ccc2c(c1)c(CCNC(C)=O)cn2-c1ccccc1 and report it. -2.92

Looking for the measured pRA of CCC(=O)NCCc1c[nH]c2ccccc12 , can you help? -2.83

What value of measured pRA is listed for COc1c2c(cc3ccccc13)CCC(NC(C)=O)C2 (stereo not given) ? -2.77

Item COc1cc(OC)c2[nH]cc(CCNC(C)=O)c2c1 has what recorded pRA? -2.32

So what does the record say about pRA for COc1ccc2[nH]c(-c3ccccc3)c(/C=C/NC(C)=O)c2c1 ? 0.19

More entries:
Quick check: pRA of COc1ccc2[nH]c(-c3ccccc3)c(CCNC(C)=O)c2c1 ? 1.3

Please give the measured pRA for this compound: COc1cc2c(CCNC(C)=O)c(Br)[nH]c2cc1Br 0.42

So what does the record say about pRA for CC(=O)NCCc1cccc2ccc3occc3c12 ? -0.93

Using the record for CC(=O)NCCCc1cccc(F)c1 , report its pRA. -3.51

Fill in the blank: the reported pRA of COc1ccc(CCNC(C)=O)cc1OC is ____. -3.17

Which pRA is reported for this compound? COc1ccc2[nH]c3ccc(NC(C)=O)cc3c2c1 -1.8

Name the reported pRA value associated with the compound CCC(=O)NCCCCc1cccc(OC)c1 -2.3

Field request: pRA | item: COc1ccc2cccc(CCNC(C)=O)c2c1 0.09

Which pRA reading was recorded for the compound CC(=O)NCCc1c(-c2ccccc2)n(C)c2ccccc12 ? -2.03

Quick check: pRA of CCC(=O)NCCn1ccc2ccc(OC)cc21 ? -0.51
